These data points were gathered from patent US9023882B2.

- SYSTEM_NAME: Xanthine oxidase (from bovine milk, Sigma) (Bos taurus (Bovine), UniProt P80457)
- Sequence (P80457 whole entry): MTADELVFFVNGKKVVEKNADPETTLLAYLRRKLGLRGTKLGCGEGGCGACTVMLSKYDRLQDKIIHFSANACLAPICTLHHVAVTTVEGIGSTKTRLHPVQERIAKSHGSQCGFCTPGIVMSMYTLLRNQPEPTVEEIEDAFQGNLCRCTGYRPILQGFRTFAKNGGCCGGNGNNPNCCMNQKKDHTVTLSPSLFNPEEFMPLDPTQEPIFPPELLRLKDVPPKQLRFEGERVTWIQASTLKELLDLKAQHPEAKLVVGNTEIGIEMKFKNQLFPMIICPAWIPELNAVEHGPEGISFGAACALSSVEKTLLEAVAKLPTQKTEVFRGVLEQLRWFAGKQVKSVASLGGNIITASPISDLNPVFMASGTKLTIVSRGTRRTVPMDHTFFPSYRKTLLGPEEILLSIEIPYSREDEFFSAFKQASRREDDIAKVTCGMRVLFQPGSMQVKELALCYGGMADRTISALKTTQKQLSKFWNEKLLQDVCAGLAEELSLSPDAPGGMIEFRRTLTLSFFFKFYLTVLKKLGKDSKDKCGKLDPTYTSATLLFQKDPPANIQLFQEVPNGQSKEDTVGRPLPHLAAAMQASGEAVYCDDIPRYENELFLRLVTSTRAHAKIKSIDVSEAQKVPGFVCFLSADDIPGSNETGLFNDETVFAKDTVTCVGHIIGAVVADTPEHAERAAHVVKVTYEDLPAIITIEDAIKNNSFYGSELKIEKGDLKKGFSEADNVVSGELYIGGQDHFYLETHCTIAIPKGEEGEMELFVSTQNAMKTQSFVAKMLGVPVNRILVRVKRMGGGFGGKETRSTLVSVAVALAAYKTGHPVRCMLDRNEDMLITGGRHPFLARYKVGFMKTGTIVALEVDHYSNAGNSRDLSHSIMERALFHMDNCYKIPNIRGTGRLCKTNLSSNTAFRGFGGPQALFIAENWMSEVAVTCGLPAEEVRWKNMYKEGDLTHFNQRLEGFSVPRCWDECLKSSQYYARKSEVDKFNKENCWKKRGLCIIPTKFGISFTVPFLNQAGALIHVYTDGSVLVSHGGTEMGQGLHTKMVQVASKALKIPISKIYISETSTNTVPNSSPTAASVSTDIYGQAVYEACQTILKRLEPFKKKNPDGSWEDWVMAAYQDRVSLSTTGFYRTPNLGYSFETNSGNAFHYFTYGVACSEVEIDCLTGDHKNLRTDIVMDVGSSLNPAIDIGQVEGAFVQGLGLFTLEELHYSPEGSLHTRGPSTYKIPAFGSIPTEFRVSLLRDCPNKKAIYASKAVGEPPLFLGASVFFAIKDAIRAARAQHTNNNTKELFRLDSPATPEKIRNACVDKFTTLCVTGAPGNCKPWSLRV
- MEASUREMENT_DESCRIPTION: Xanthine oxidase inhibitory activity
- Type: biochemical
- STATED_CONDITIONS: 0.02 units/mL, xanthine 200 μM, 10 minutes at room temperature, absorbance at 290 nm
pIC50: −log10 of the molar value.
Is pIC50 at least 8? Then class 1. If not, class 0.

>>> qualitative_label("N#Cc1cn(-c2ccc(C(=O)O)c(F)c2)cc1-c1ccccc1 [Example 208]")
"class 1"
>>> qualitative_label("N#Cc1cn(-c2ccc(C(=O)O)cc2)cc1-c1ccccc1OCc1ccccc1Cl [Example 177]")
"class 0"
>>> qualitative_label("CCCCc1cn(-c2ccc(C(=O)O)cc2)cc1C#N [Example 240]")
"class 1"
>>> qualitative_label("N#Cc1cn(-c2ccc(C(=O)O)cc2)nc1NC(=O)Cc1ccccc1 [Example 263]")
"class 1"
>>> qualitative_label("N#Cc1cn(-c2ccc(C(=O)O)cc2)cc1-c1ccccc1OCC(=O)O [Example 158]")
"class 1"
>>> qualitative_label("COc1ccccc1COc1ccccc1-c1cn(-c2ccc(C(=O)O)cc2)cc1C#N [Example 183]")
"class 0"
>>> qualitative_label("N#Cc1cn(-c2ccc(C(=O)O)cc2)cc1-c1ccco1 [Example 244]")
"class 1"

---

- SYSTEM_NAME: Xanthine oxidase (from bovine milk, Sigma) (Bos taurus (Bovine), UniProt P80457)
- MEASUREMENT_DESCRIPTION: Xanthine oxidase inhibitory activity
- Format: biochemical
- STATED_CONDITIONS: 0.02 units/mL, xanthine 200 μM, 10 minutes at room temperature, absorbance at 290 nm
Define the label as True when IC50 is strictly less than 50 nM and as False in all remaining cases.

>>> qualitative_label("Cc1c(CC(C)C)c(C#N)cn1-c1ccc(C(=O)O)cc1")
"True"
>>> qualitative_label("N#Cc1cn(-c2ccc(C(=O)O)cc2)cc1-c1cccc(CO)c1")
"True"
>>> qualitative_label("N#Cc1cn(-c2ccc(C(=O)O)cc2)cc1-c1ccccc1OCc1ccccc1F")
"True"
>>> qualitative_label("Cc1c(F)cccc1-c1cn(-c2ccc(C(=O)O)c(O)c2)cc1C#N")
"True"
>>> qualitative_label("N#Cc1cn(-c2ccc(C(=O)O)cc2)cc1-c1cccn1Cc1ccccc1")
"True"
>>> qualitative_label("Cc1ccc(COc2ccccc2-c2cn(-c3ccc(C(=O)O)cc3)cc2C#N)cc1")
"False"
>>> qualitative_label("COCOc1ccccc1-c1cn(-c2ccc(C(=O)O)cc2)cc1C#N")
"True"
>>> qualitative_label("N#Cc1cn(-c2cc(C(=O)O)ccn2)cc1-c1ccccc1")
"False"
>>> qualitative_label("Cc1cccc(COc2ccccc2-c2cn(-c3ccc(C(=O)O)cc3)cc2C#N)c1")
"False"

---

List of IC50 values.
- SYSTEM_NAME: Xanthine oxidase (from bovine milk, Sigma) (Bos taurus (Bovine), UniProt P80457)
- MEASUREMENT_DESCRIPTION: Xanthine oxidase inhibitory activity
- Type: biochemical
- STATED_CONDITIONS: 0.02 units/mL, xanthine 200 μM, 10 minutes at room temperature, absorbance at 290 nm
MEASURED_QUANTITY: IC50 (nM)

>>> numeric_value("CC(=O)Nc1nn(-c2ccc(C(=O)O)cc2)cc1C#N [Example 27]")
7.1
>>> numeric_value("CCCCc1c(C#N)cn(-c2ccc(C(=O)O)cc2)c1C [Example 2]")
17.1
>>> numeric_value("N#Cc1cn(-c2ccc(C(=O)O)cc2)cc1-c1ccc(OCc2ccccc2)cc1 [Example 157]")
33.8
>>> numeric_value("COCCNC(=O)c1cn(-c2ccc(C(=O)O)cc2)cc1C#N [Example 229]")
7.2
>>> numeric_value("Cc1cccc(C)c1-c1cn(-c2ccc(C(=O)O)c(O)c2)cc1C#N [Example 272]")
10.1
>>> numeric_value("N#Cc1cccc(-c2cn(-c3ccc(C(=O)O)cc3)cc2C#N)c1 [Example 211]")
4.6
>>> numeric_value("N#Cc1cn(-c2ccc(C(=O)O)cc2)cc1COCc1ccccc1 [Example 248]")
11.9
>>> numeric_value("CCCCCCCc1cn(-c2ccc(C(=O)O)cc2)cc1C#N [Example 247]")
8.9
>>> numeric_value("N#Cc1cn(-c2ccc(C(=O)O)cc2)cc1-c1cccc2c1OC(F)(F)O2 [Example 254]")
6.9
>>> numeric_value("N#Cc1cn(-c2ccc(C(=O)O)cc2)cc1-c1ccccc1O [Example 146]")
4
>>> numeric_value("N#Cc1cn(-c2ccc(C(=O)O)cc2)cc1C(=O)N1CCOCC1 [Example 232]")
26.9
>>> numeric_value("N#Cc1cn(-c2ccc(C(=O)O)cc2)cc1-c1ccccc1OCc1ccccc1C(F)(F)F [Example 180]")
255
>>> numeric_value("N#Cc1cn(-c2ccc(C(=O)O)cc2)cc1OCc1ccccc1 [Example 18]")
7.1
>>> numeric_value("N#Cc1cn(-c2ccc(C(=O)O)cc2)cc1-c1csc2ccccc12 [Example 253]")
5.4
>>> numeric_value("COc1cccc(COc2ccccc2-c2cn(-c3ccc(C(=O)O)cc3)cc2C#N)c1 [Example 184]")
71.9
>>> numeric_value("COc1ccc(-c2cn(-c3ccc(C(=O)O)c(O)c3)cc2C#N)c(OC)c1 [Example 266]")
10.4
>>> numeric_value("N#Cc1cn(-c2ccc(C(=O)O)cc2)cc1-c1ccccc1OCc1ccc(F)cc1 [Example 172]")
49.1
>>> numeric_value("N#Cc1cn(-c2ccc(C(=O)O)cc2)cc1-c1ccc(OCCO)cc1 [Example 154]")
4
>>> numeric_value("N#Cc1ccc(-c2cn(-c3ccc(C(=O)O)cc3)cc2C#N)cc1 [Example 212]")
5.4
>>> numeric_value("N#Cc1cn(-c2ccc(C(=O)O)cc2)cc1-c1cccc2ccccc12 [Example 209]")
7.1
>>> numeric_value("CN(C)C(=O)c1cn(-c2ccc(C(=O)O)cc2)cc1C#N [Example 226]")
19.7
>>> numeric_value("N#Cc1cn(-c2ccc(C(=O)O)cc2)cc1-c1cccc(OCCOc2ccccc2)c1 [Example 216]")
20.9
>>> numeric_value("N#Cc1nn(-c2ccc(C(=O)O)cc2)cc1-c1ccc2c(c1)OCO2 [Example 249]")
9.4
>>> numeric_value("N#Cc1cn(-c2ccc(C(=O)O)cc2)cc1-c1ccc(C(=O)O)cc1 [Example 210]")
5.1
>>> numeric_value("COCCN(C)C(=O)c1cn(-c2ccc(C(=O)O)cc2)cc1C#N [Example 230]")
13
>>> numeric_value("N#Cc1cn(-c2ccc(C(=O)O)cc2)cc1Cc1ccccc1 [Example 235]")
8.6
>>> numeric_value("N#Cc1cn(-c2ccc(C(=O)O)cc2)cc1-c1cccc(OCC(=O)O)c1 [Example 159]")
2.7
>>> numeric_value("N#Cc1cn(-c2ccc(C(=O)O)cc2)cc1-c1cccc(OCCCO)c1 [Example 150]")
5
>>> numeric_value("N#Cc1cn(-c2ccc(C(=O)O)cc2)cc1-c1ccccc1OCCO [Example 152]")
4
>>> numeric_value("CCCCCc1cn(-c2ccc(C(=O)O)cc2)cc1C#N [Example 245]")
2.8
>>> numeric_value("Cc1ccc(-c2cn(-c3ccc(C(=O)O)c(O)c3)cc2C#N)cc1F [Example 269]")
23.4
>>> numeric_value("N#Cc1cn(-c2ccc(C(=O)O)cc2)cc1C(=O)N1CCCCC1 [Example 231]")
7
>>> numeric_value("N#Cc1cn(-c2ccc(C(=O)O)cc2)cc1-c1ccccc1OCc1cccs1 [Example 175]")
27.7
>>> numeric_value("Cc1cn(-c2ccc(C(=O)O)cc2)cc1C#N [Example 236]")
81.2
>>> numeric_value("N#Cc1cn(-c2ccc(C(=O)O)cc2)cc1-c1ccc(OCC(=O)O)cc1 [Example 160]")
2.1
>>> numeric_value("COCOc1cccc(-c2cn(-c3ccc(C(=O)O)cc3)cc2C#N)c1 [Example 144]")
5.8
>>> numeric_value("N#Cc1cn(-c2ccc(C(=O)O)cc2)cc1C(=O)NCc1ccccc1 [Example 227]")
3.6

---

- SYSTEM_NAME: Xanthine oxidase (from bovine milk, Sigma) (Bos taurus (Bovine))
- MEASUREMENT_DESCRIPTION: Xanthine oxidase inhibitory activity
- Assay type: biochemical
- STATED_CONDITIONS: 100 μM xanthine final, absorbance at 290 nm
pIC50: −log10 of the molar value.
List of pIC50 values.
MEASURED_QUANTITY: pIC50

>>> numeric_value("N#Cc1cn(-c2cc(C(=O)O)ccn2)cc1-c1cccs1")
6.84
>>> numeric_value("N#Cc1cn(-c2ccc(C(=O)O)c(O)c2)cc1-c1ccccc1-c1ccccc1")
8.03
>>> numeric_value("N#Cc1cn(-c2ccc(C(=O)O)c(O)c2)cc1-c1ccc2c(c1)OCCO2")
8.14
>>> numeric_value("Cc1cccc(-c2cn(-c3cc(C(=O)O)ccn3)cc2C#N)c1")
7.59
>>> numeric_value("COc1ccc(F)c(-c2cn(-c3ccc(C(=O)O)c(O)c3)cc2C#N)c1")
8.03
>>> numeric_value("N#Cc1cn(-c2ccc(C(=O)O)c(O)c2)cc1-c1ccc(COc2ccccc2)cc1")
7.23
>>> numeric_value("N#Cc1ccc(-c2cn(-c3ccc(C(=O)O)c(O)c3)cc2C#N)cc1")
8.28
>>> numeric_value("Cc1cn(-c2ccc(C(=O)O)c(O)c2)cc1C#N")
8.21
>>> numeric_value("CCOc1cccc(-c2cn(-c3ccc(C(=O)O)c(O)c3)cc2C#N)c1")
7.87
